Attribution: patent US20110201564A1

In this section, each of the compounds is paired with its reported Partition ratio r.
Target: CYP3A4 (Homo sapiens)
Construct: using human liver microsomes (pool from various individuals); from tissue; host or cells: human liver microsomes (pool from various individuals)
Test: Assay to assess irreversible CYP3A4 inhibition (mechanism-based inhibition) in human liver microsomes
Type: in vitro ADME
Conditions: CYP3A4 activity as 6β-hydroxytestosterone formation, 2-20 μM

Consider the following illustrative entries.
[
  {
    "COMPOUND": "CS(=O)(=O)Cc1cc(F)cc2c(C(c3ccc(F)cc3Cl)C3CC3C#N)c[nH]c12 (single isomer, unassigned) [Example 266-1]",
    "PROPERTY MEASURED": "Partition ratio r",
    "VALUE REPORTED": ">200"
  },
  {
    "COMPOUND": "CS(=O)(=O)Cc1cccc2c(C(c3ccc(Cl)cc3)C3CC3(F)F)c[nH]c12 (single isomer, unassigned) [Example 261-1]",
    "PROPERTY MEASURED": "Partition ratio r",
    "VALUE REPORTED": ">200"
  }
]

Could you now consider this next compound?
Determine its reported Partition ratio r: CS(=O)(=O)Cc1cc(F)cc2c(C(c3ccc(Cl)cc3)C3CC3C#N)c[nH]c12 (single isomer, unassigned) [Example 277-1-1]
>200

---

Molecular target: progesterone receptor (PR) (Homo sapiens, UniProt P06401)
Construct: of the progesterone receptor (PR, amino acids 680-933)
Sequence (P06401 680-933): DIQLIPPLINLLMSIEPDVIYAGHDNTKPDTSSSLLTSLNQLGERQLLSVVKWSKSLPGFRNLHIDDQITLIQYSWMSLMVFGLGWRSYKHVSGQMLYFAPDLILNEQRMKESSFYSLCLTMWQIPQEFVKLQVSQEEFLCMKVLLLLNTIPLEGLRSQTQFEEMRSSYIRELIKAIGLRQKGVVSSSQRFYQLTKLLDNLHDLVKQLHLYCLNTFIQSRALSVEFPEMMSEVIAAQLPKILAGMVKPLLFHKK
Experiment: Cellular in vitro assay, GAL4-PR chimera luciferase reporter in CHO K1 cells (selectivity)
Conditions: antagonism vs progesterone; CHO K1 GAL4-PR LBD luciferase reporter
PROPERTY MEASURED: IC50 (µM)

Consider the following illustrative entries.
[
  {
    "COMPOUND": "CS(=O)(=O)Cc1cccc2c(C(c3ccc(F)cc3)c3ccc(Cl)cc3)c[nH]c12 (single isomer, unassigned)",
    "IC50, µM": 6.55
  },
  {
    "COMPOUND": "CCC(CCO)(c1ccc(Cl)cc1)c1c[nH]c2c(C[S+](C)[O-])cccc12 (mixture of isomers)",
    "IC50, µM": 4.58
  },
  {
    "COMPOUND": "CSCc1cc(F)cc2c(C(CCC#N)c3ccc(Cl)cc3)c[nH]c12 (centres unmarked)",
    "IC50, µM": 1.98
  },
  {
    "COMPOUND": "CCC(CCC#N)(c1ccc(Cl)cc1)c1c[nH]c2c(CS(C)(=O)=O)cccc12 (centres unmarked) [Example 172]",
    "IC50, µM": 16
  },
  {
    "COMPOUND": "C[S+]([O-])Cc1cccc2c(C(CCC#N)c3ccc(Cl)cc3)c[nH]c12 (single isomer, unassigned)",
    "IC50, µM": 7.91
  }
]

[A] CSCc1cccc2c(C(C)(c3ccc(C(F)(F)F)cc3)C3CC3C#N)c[nH]c12 (centres unmarked)
[B] CS(=O)(=O)Cc1cccc2c(C(CCC#N)c3ccc(C(F)(F)F)cc3F)c[nH]c12 (centres unmarked)
Which entry has a larger number for IC50, A or B ? // respond with label for picked entry
A

[P] C[S+]([O-])Cc1cccc2c(C(C)(c3ccc(Cl)cc3F)C3CC3)c[nH]c12 (mixture of isomers)
[Q] CC(c1ccc(Cl)cc1F)(c1c[nH]c2c(CS(C)(=O)=O)cccc12)C1CC1 (single isomer, unassigned)
[R] CS(=O)(=O)Cc1cccc2c(C(CCC#N)c3ccc(Cl)cc3Cl)c[nH]c12 (centres unmarked)
[S] CCC(CCC#N)(c1ccc(Cl)cc1)c1c[nH]c2c(C[S+](C)[O-])cccc12 (mixture of isomers)
Order the records by IC50, with each subsequent value no larger than the one before. Output spec: labels arranged per the requested ranking.
R, P, Q, S
(R: 12.8 µM, P: 8.13 µM, Q: 4.5 µM, S: 2.72 µM)

---

Target: CYP3A4 (Homo sapiens, UniProt P08684)
Construct: using human liver microsomes (pool from various individuals); from tissue; host or cells: human liver microsomes (pool from various individuals)
Sequence (P08684 whole entry): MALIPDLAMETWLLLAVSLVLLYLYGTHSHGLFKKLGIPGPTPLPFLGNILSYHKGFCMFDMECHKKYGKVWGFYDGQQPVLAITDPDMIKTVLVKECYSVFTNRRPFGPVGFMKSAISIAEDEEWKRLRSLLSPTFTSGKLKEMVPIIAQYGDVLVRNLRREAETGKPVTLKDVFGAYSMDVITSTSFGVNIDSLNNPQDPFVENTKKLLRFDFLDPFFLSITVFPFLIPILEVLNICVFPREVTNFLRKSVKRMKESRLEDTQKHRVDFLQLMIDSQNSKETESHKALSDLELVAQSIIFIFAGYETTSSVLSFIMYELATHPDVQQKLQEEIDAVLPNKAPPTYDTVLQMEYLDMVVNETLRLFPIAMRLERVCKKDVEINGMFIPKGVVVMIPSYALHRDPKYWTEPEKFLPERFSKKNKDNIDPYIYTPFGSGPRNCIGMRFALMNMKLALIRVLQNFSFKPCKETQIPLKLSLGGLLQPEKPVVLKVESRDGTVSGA
Assay: Assay to assess irreversible CYP3A4 inhibition (mechanism-based inhibition) in human liver microsomes
Type: in vitro ADME
Settings: CYP3A4 activity as 6β-hydroxytestosterone formation, 2-20 μM
PROPERTY MEASURED: Partition ratio r

[
  {
    "COMPOUND": "CCC(CCO)(c1ccc(Cl)cc1)c1c[nH]c2c(CS(C)(=O)=O)cccc12 (stereo not shown)",
    "VALUE REPORTED": 90
  },
  {
    "COMPOUND": "CCC(CCC#N)(c1ccc(Cl)cc1)c1c[nH]c2c(CS(C)(=O)=O)cccc12 (stereo not shown)",
    "VALUE REPORTED": 120
  },
  {
    "COMPOUND": "CS(=O)(=O)Cc1cccc2c(C(CCC#N)c3ccc(C(F)(F)F)cc3)c[nH]c12 (single isomer, unassigned)",
    "VALUE REPORTED": 100
  }
]

---

Target: androgen receptor (AR) (Homo sapiens)
Construct: of the androgen receptor (AR, amino acids 667-919)
Sequence (P10275 668-920): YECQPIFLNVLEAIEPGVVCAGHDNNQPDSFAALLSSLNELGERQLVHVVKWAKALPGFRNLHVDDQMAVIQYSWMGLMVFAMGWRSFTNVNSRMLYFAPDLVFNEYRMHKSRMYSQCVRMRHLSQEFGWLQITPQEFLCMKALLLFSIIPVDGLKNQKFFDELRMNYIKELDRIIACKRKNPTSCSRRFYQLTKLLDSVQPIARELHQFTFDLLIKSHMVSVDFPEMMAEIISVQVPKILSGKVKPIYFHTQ
Assay: Cellular in vitro assay, GAL4-AR chimera luciferase reporter in CHO K1 cells (selectivity)
Conditions: antagonism vs dihydrotestosterone; CHO K1 GAL4-AR LBD luciferase reporter
pIC50: −log10 of the molar value.
PROPERTY MEASURED: pIC50

[
  {
    "MOLECULE": "CCC(CCC#N)(c1ccc(Cl)cc1)c1c[nH]c2c(CS(C)(=O)=O)cccc12 (single isomer, unassigned) [Enantiomer 172-1]",
    "VALUE REPORTED": 5.42
  },
  {
    "MOLECULE": "CCC(CCO)(c1ccc(Cl)cc1)c1c[nH]c2c(C[S+](C)[O-])cccc12 (mixture of isomers)",
    "VALUE REPORTED": 5.19
  },
  {
    "MOLECULE": "CS(=O)(=O)Cc1cccc2c(C(CCC#N)c3ccc(C(F)(F)F)cc3)c[nH]c12 (single isomer, unassigned)",
    "VALUE REPORTED": 5.25
  }
]

---

Molecular target: androgen receptor (AR) (Homo sapiens)
Construct: of the androgen receptor (AR, amino acids 667-919)
Test: Cellular in vitro assay, GAL4-AR chimera luciferase reporter in CHO K1 cells (selectivity)
Conditions: antagonism vs dihydrotestosterone; CHO K1 GAL4-AR LBD luciferase reporter
pIC50: −log10 of the molar value.
PROPERTY MEASURED: pIC50

Consider the following illustrative entries.
[
  {
    "COMPOUND": "CSCc1cccc2c(C(C)(c3ccc(C(F)(F)F)cc3)C3CC3C#N)c[nH]c12 (centres unmarked) [Example 177]",
    "pIC50": 5.71
  },
  {
    "COMPOUND": "CSCc1cc(F)cc2c(C(c3ccc(C)cc3)C3CC3C#N)c[nH]c12 (centres unmarked) [Example 260]",
    "pIC50": 5.04
  },
  {
    "COMPOUND": "CC(CCC#N)(c1ccc(Cl)cc1)c1c[nH]c2c(CS(C)(=O)=O)cccc12 (centres unmarked) [Example 171]",
    "pIC50": 5.49
  },
  {
    "COMPOUND": "CS(=O)(=O)Cc1cccc2c(C(c3c(F)cc(Cl)cc3F)C3CC3)c[nH]c12 (centres unmarked) [Example 252]",
    "pIC50": 5.52
  },
  {
    "COMPOUND": "CS(=O)(=O)Cc1cccc2c(C(c3ccc(C(F)(F)F)cc3Cl)C3CC3)c[nH]c12 (centres unmarked) [Example 245]",
    "pIC50": 5.46
  }
]

[I] C[S+]([O-])Cc1cccc2c(C(CCC#N)c3ccc(Cl)cc3)c[nH]c12 (single isomer, unassigned) [Example 78-4]
[II] CS(=O)(=O)Cc1cc(F)cc2c(C(c3ccc(F)cc3Cl)C3CC3C#N)c[nH]c12 (single isomer, unassigned) [Example 266-1]
[III] CCC(CCO)(c1ccc(Cl)cc1)c1c[nH]c2c(CS(C)(=O)=O)cccc12 (centres unmarked) [Example 147]
Order the records by pIC50, with each subsequent value no larger than the one before. Output spec: labels arranged per the requested ranking.
II, III, I
(II: 5.89, III: 5.52, I: 5.05)

---

Target: UniProt:P08235
Sequence (P08235 734-984 limits assumed): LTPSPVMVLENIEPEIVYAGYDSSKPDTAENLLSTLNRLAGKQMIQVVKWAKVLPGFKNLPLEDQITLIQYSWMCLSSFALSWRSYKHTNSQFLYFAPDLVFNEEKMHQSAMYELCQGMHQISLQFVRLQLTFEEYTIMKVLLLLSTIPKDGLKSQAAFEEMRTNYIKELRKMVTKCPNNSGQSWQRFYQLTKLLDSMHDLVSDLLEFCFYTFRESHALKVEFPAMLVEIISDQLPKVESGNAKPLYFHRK
Test: Cellular in vitro assay, GAL4-MR chimera luciferase reporter in CHO K1 cells (inhibitory MR activity)
Settings: antagonism vs aldosterone; CHO K1 GAL4-MR LBD luciferase reporter
pIC50: −log10 of the molar value.
PROPERTY MEASURED: pIC50

[
  {
    "COMPOUND": "CS(=O)(=O)Cc1cc(F)cc2c(C(CCC#N)c3ccc(Cl)cc3Cl)c[nH]c12 (stereo not drawn) [Example 63]",
    "pIC50": 7.40
  },
  {
    "COMPOUND": "CS(=O)(=O)Cc1cccc2c(C(c3ccc(F)cc3)c3ccc(C(F)(F)F)cc3)c[nH]c12 (stereo not drawn) [Example 113]",
    "pIC50": 6.89
  }
]

[P] CSCc1cc(F)cc2c(C3(C4CC4)CCc4cc(F)ccc43)c[nH]c12 (stereo not drawn) [Example 94]
[Q] CS(=O)(=O)Cc1cccc2c(C(c3ccc(Cl)cc3Cl)C3CC3(F)F)c[nH]c12 (single isomer, unassigned) [Example 325-2]
Which entry has a larger number for pIC50, P or Q ? // respond with label for picked entry
Q

[A] CS(=O)(=O)Cc1cc(F)cc2c(C(c3ccc(Cl)cc3F)C3CC3C#N)c[nH]c12 (single isomer, unassigned) [Example 273-1-2]
[B] CSCc1cccc2c(C(c3ccc(F)cc3)c3ccc(Cl)cc3F)c[nH]c12 (stereo not drawn) [Example 104]
Which entry has a larger number for pIC50, A or B ? // respond with label for picked entry
A

[I] CS(=O)(=O)Cc1cccc2c(C(CCCC#N)c3ccc(Cl)cc3)c[nH]c12 (stereo not drawn) [Example 70]
[II] C[S+]([O-])Cc1cccc2c(C3(C4CC4)CCc4cc(F)ccc43)c[nH]c12 (mixture of isomers) [Example 120]
Which entry shows the lesser value of pIC50 here, I or II ? // respond with label for picked entry
I

[P] CS(=O)(=O)Cc1cccc2c(C3(C4CC4)CCc4cc(F)ccc43)c[nH]c12 (stereo not drawn) [Example 107]
[Q] CS(=O)(=O)Cc1cccc2c(C(c3ccc(C(F)(F)F)cc3)C3CC3)c[nH]c12 (stereo not drawn) [Example 244]
[R] CS(=O)(=O)Cc1cccc2c(C(c3ccc(Cl)cc3Cl)C3CC3)c[nH]c12 (stereo not drawn) [Example 242]
[S] CS(=O)(=O)Cc1c(F)ccc2c(C(CCC#N)c3ccc(Cl)cc3)c[nH]c12 (stereo not drawn) [Example 71]
Order the records by pIC50, with each subsequent value no larger than the one before. Output spec: labels arranged per the requested ranking.
P, R, Q, S
(P: 7.70, R: 7.18, Q: 6.77, S: 6.49)
